Source: the supplement of paper PMC10724198

- Tested on: Saccharomyces cerevisiae
- MEASUREMENT_DESCRIPTION: protein stability index of tFT-peptide fusion (C-terminal peptide) (PSI (0-1 scale)); higher = more stable (slower turnover)
- CONDITION_SET: genetic background: wild type; temperature: 30 C
Attribute: protein stability index
MEASUREMENT_TYPE: protein stability index

- SEQUENCE_DATA: "LQRLCKKYPEIY [RFA3 C-terminal 12 aa]"
  ASSAY_TARGET: "Saccharomyces cerevisiae"
  MEASUREMENT_TYPE: "protein stability index"
  TEST_VALUE: 0.703
- SEQUENCE_DATA: "VDTILDEDFLLR [APC11 C-terminal 12 aa]"
  ASSAY_TARGET: "Saccharomyces cerevisiae"
  MEASUREMENT_TYPE: "protein stability index"
  TEST_VALUE: 0.712
- SEQUENCE_DATA: "LSHKGIKHLNIT [YGR266W C-terminal 12 aa]"
  ASSAY_TARGET: "Saccharomyces cerevisiae"
  MEASUREMENT_TYPE: "protein stability index"
  TEST_VALUE: 0.68
- SEQUENCE_DATA: "TQEMENTKLAES [GIS1 C-terminal 12 aa]"
  ASSAY_TARGET: "Saccharomyces cerevisiae"
  MEASUREMENT_TYPE: "protein stability index"
  TEST_VALUE: 0.757
- SEQUENCE_DATA: "SHPSFKQLLIQK [MLO1 C-terminal 12 aa]"
  ASSAY_TARGET: "Saccharomyces cerevisiae"
  MEASUREMENT_TYPE: "protein stability index"
  TEST_VALUE: 0.73
- SEQUENCE_DATA: "GAQPHLYIPDED [USA1 C-terminal 12 aa]"
  ASSAY_TARGET: "Saccharomyces cerevisiae"
  MEASUREMENT_TYPE: "protein stability index"
  TEST_VALUE: 0.698
- SEQUENCE_DATA: "FFRLGWSTWLHY [YOR029W C-terminal 12 aa]"
  ASSAY_TARGET: "Saccharomyces cerevisiae"
  MEASUREMENT_TYPE: "protein stability index"
  TEST_VALUE: 0.351
- SEQUENCE_DATA: "YWRKQYPDADLP [YAR028W C-terminal 12 aa]"
  ASSAY_TARGET: "Saccharomyces cerevisiae"
  MEASUREMENT_TYPE: "protein stability index"
  TEST_VALUE: 0.695
- SEQUENCE_DATA: "TDISGEKNSSKI [RLM1 C-terminal 12 aa]"
  ASSAY_TARGET: "Saccharomyces cerevisiae"
  MEASUREMENT_TYPE: "protein stability index"
  TEST_VALUE: 0.756
- SEQUENCE_DATA: "GKNQWFFSKLRF [RPL27A C-terminal 12 aa]"
  ASSAY_TARGET: "Saccharomyces cerevisiae"
  MEASUREMENT_TYPE: "protein stability index"
  TEST_VALUE: 0.683
- SEQUENCE_DATA: "GAIMGAAAFALL [TOS6 C-terminal 12 aa]"
  ASSAY_TARGET: "Saccharomyces cerevisiae"
  MEASUREMENT_TYPE: "protein stability index"
  TEST_VALUE: 0.729
- SEQUENCE_DATA: "RQMTSSFFLVFA [YDR118W-A C-terminal 12 aa]"
  ASSAY_TARGET: "Saccharomyces cerevisiae"
  MEASUREMENT_TYPE: "protein stability index"
  TEST_VALUE: 0.508
- SEQUENCE_DATA: "LSQRVKKEYAAN [COQ21 C-terminal 12 aa]"
  ASSAY_TARGET: "Saccharomyces cerevisiae"
  MEASUREMENT_TYPE: "protein stability index"
  TEST_VALUE: 0.685
- SEQUENCE_DATA: "ESYRDDSIEAED [NCR1 C-terminal 12 aa]"
  ASSAY_TARGET: "Saccharomyces cerevisiae"
  MEASUREMENT_TYPE: "protein stability index"
  TEST_VALUE: 0.716
- SEQUENCE_DATA: "DDGDSDSWDTNW [CEX1 C-terminal 12 aa]"
  ASSAY_TARGET: "Saccharomyces cerevisiae"
  MEASUREMENT_TYPE: "protein stability index"
  TEST_VALUE: 0.702
- SEQUENCE_DATA: "MDLKRFKGEFSF [PEX5 C-terminal 12 aa]"
  ASSAY_TARGET: "Saccharomyces cerevisiae"
  MEASUREMENT_TYPE: "protein stability index"
  TEST_VALUE: 0.685
- SEQUENCE_DATA: "ALCICCTMDMLF [YBR016W C-terminal 12 aa]"
  ASSAY_TARGET: "Saccharomyces cerevisiae"
  MEASUREMENT_TYPE: "protein stability index"
  TEST_VALUE: 0.645
- SEQUENCE_DATA: "EKKDTEGDVDMD [SSE1 C-terminal 12 aa]"
  ASSAY_TARGET: "Saccharomyces cerevisiae"
  MEASUREMENT_TYPE: "protein stability index"
  TEST_VALUE: 0.666
- SEQUENCE_DATA: "HGNWSRVVTDLN [BAT2 C-terminal 12 aa]"
  ASSAY_TARGET: "Saccharomyces cerevisiae"
  MEASUREMENT_TYPE: "protein stability index"
  TEST_VALUE: 0.722
- SEQUENCE_DATA: "VAPKPKTKQEKK [WRS1 C-terminal 12 aa]"
  ASSAY_TARGET: "Saccharomyces cerevisiae"
  MEASUREMENT_TYPE: "protein stability index"
  TEST_VALUE: 0.658
- SEQUENCE_DATA: "SSIFVRVYKFWC [BAP3 C-terminal 12 aa]"
  ASSAY_TARGET: "Saccharomyces cerevisiae"
  MEASUREMENT_TYPE: "protein stability index"
  TEST_VALUE: 0.716
- SEQUENCE_DATA: "DQPFYKSLFSRK [HXT1 C-terminal 12 aa]"
  ASSAY_TARGET: "Saccharomyces cerevisiae"
  MEASUREMENT_TYPE: "protein stability index"
  TEST_VALUE: 0.685
- SEQUENCE_DATA: "FCKEKVYSKLLV [YNL103W-A C-terminal 12 aa]"
  ASSAY_TARGET: "Saccharomyces cerevisiae"
  MEASUREMENT_TYPE: "protein stability index"
  TEST_VALUE: 0.559
- SEQUENCE_DATA: "EHRMLKLILNSG [NTO1 C-terminal 12 aa]"
  ASSAY_TARGET: "Saccharomyces cerevisiae"
  MEASUREMENT_TYPE: "protein stability index"
  TEST_VALUE: 0.644
- SEQUENCE_DATA: "PILSQEVDRWRL [GAC1 C-terminal 12 aa]"
  ASSAY_TARGET: "Saccharomyces cerevisiae"
  MEASUREMENT_TYPE: "protein stability index"
  TEST_VALUE: 0.744
- SEQUENCE_DATA: "MDSRVAHGNILI [SRB5 C-terminal 12 aa]"
  ASSAY_TARGET: "Saccharomyces cerevisiae"
  MEASUREMENT_TYPE: "protein stability index"
  TEST_VALUE: 0.688
- SEQUENCE_DATA: "ENVDSPRKSNQL [SLM2 C-terminal 12 aa]"
  ASSAY_TARGET: "Saccharomyces cerevisiae"
  MEASUREMENT_TYPE: "protein stability index"
  TEST_VALUE: 0.678
- SEQUENCE_DATA: "MAHRIKNFRDEL [SIL1 C-terminal 12 aa]"
  ASSAY_TARGET: "Saccharomyces cerevisiae"
  MEASUREMENT_TYPE: "protein stability index"
  TEST_VALUE: 0.672
- SEQUENCE_DATA: "EADMKTKLDISD [NBP2 C-terminal 12 aa]"
  ASSAY_TARGET: "Saccharomyces cerevisiae"
  MEASUREMENT_TYPE: "protein stability index"
  TEST_VALUE: 0.696
- SEQUENCE_DATA: "NQVKLNQLLVGN [CSE1 C-terminal 12 aa]"
  ASSAY_TARGET: "Saccharomyces cerevisiae"
  MEASUREMENT_TYPE: "protein stability index"
  TEST_VALUE: 0.641
- SEQUENCE_DATA: "VIIKVFIRRSDA [YJL086C C-terminal 12 aa]"
  ASSAY_TARGET: "Saccharomyces cerevisiae"
  MEASUREMENT_TYPE: "protein stability index"
  TEST_VALUE: 0.461
- SEQUENCE_DATA: "CKSNKKHKQRQG [RTC6 C-terminal 12 aa]"
  ASSAY_TARGET: "Saccharomyces cerevisiae"
  MEASUREMENT_TYPE: "protein stability index"
  TEST_VALUE: 0.601
- SEQUENCE_DATA: "RSTAQRGGYSAV [ATG27 C-terminal 12 aa]"
  ASSAY_TARGET: "Saccharomyces cerevisiae"
  MEASUREMENT_TYPE: "protein stability index"
  TEST_VALUE: 0.679
- SEQUENCE_DATA: "DLIDDKTNRGRR [PRP2 C-terminal 12 aa]"
  ASSAY_TARGET: "Saccharomyces cerevisiae"
  MEASUREMENT_TYPE: "protein stability index"
  TEST_VALUE: 0.697
- SEQUENCE_DATA: "VDMTSIFDFMLN [POL1 C-terminal 12 aa]"
  ASSAY_TARGET: "Saccharomyces cerevisiae"
  MEASUREMENT_TYPE: "protein stability index"
  TEST_VALUE: 0.709
- SEQUENCE_DATA: "FPEKNIVNLKSA [CHA1 C-terminal 12 aa]"
  ASSAY_TARGET: "Saccharomyces cerevisiae"
  MEASUREMENT_TYPE: "protein stability index"
  TEST_VALUE: 0.15
- SEQUENCE_DATA: "DYDEEDPYEDPF [IKI1 C-terminal 12 aa]"
  ASSAY_TARGET: "Saccharomyces cerevisiae"
  MEASUREMENT_TYPE: "protein stability index"
  TEST_VALUE: 0.691
- SEQUENCE_DATA: "YKASGSYLEKYF [YPK3 C-terminal 12 aa]"
  ASSAY_TARGET: "Saccharomyces cerevisiae"
  MEASUREMENT_TYPE: "protein stability index"
  TEST_VALUE: 0.686
- SEQUENCE_DATA: "IVNVMFCLVRGF [DSC3 C-terminal 12 aa]"
  ASSAY_TARGET: "Saccharomyces cerevisiae"
  MEASUREMENT_TYPE: "protein stability index"
  TEST_VALUE: 0.404
- SEQUENCE_DATA: "INIVVDMLASQH [RMD1 C-terminal 12 aa]"
  ASSAY_TARGET: "Saccharomyces cerevisiae"
  MEASUREMENT_TYPE: "protein stability index"
  TEST_VALUE: 0.591
